assay: activity coefficient (dimensionless); of the first substance listed, at infinite dilution; xn = mol fraction of the nth substance listed; conditions: 343.15 K; 101 kPa; Liquid; Chromatography; x1 = 0
Assay endpoint: activity coefficient
// keep it numeric: no unit symbol after the value

Look at this compound and give its reported activity coefficient. C1CCCCC1 [cyclohexane] + CCCC[N+]1(C)CCCC1.N#CN=C=[N-]
18.5

Look at this compound and give its reported activity coefficient. CC(C)=O [acetone] + CCCC[N+]1(C)CCCC1.N#CN=C=[N-]
0.963

Look at this compound and give its reported activity coefficient. Cc1ccccc1 [toluene] + CCCC[N+]1(C)CCCC1.N#CN=C=[N-]
2.3

Look at this compound and give its reported activity coefficient. c1ccccc1 [benzene] + CCCC[N+]1(C)CCCC1.N#CN=C=[N-]
1.49

Look at this compound and give its reported activity coefficient. CCCO [propan-1-ol] + CCCC[N+]1(C)CCCC1.N#CN=C=[N-]
0.656

Look at this compound and give its reported activity coefficient. CCO [ethanol] + CCCC[N+]1(C)CCCC1.N#CN=C=[N-]
0.53

Look at this compound and give its reported activity coefficient. CCC(C)=O [butanone] + CCCC[N+]1(C)CCCC1.N#CN=C=[N-]
1.33

Look at this compound and give its reported activity coefficient. CC1CCCCC1 [methylcyclohexane] + CCCC[N+]1(C)CCCC1.N#CN=C=[N-]
28.4

Look at this compound and give its reported activity coefficient. CC#N [acetonitrile] + CCCC[N+]1(C)CCCC1.N#CN=C=[N-]
0.684

Look at this compound and give its reported activity coefficient. CO [methanol] + CCCC[N+]1(C)CCCC1.N#CN=C=[N-]
0.347

###

test: activity coefficient (dimensionless); of the first substance listed, at infinite dilution; xn = mol fraction of the nth substance listed; details: 353.15 K; 101 kPa; Liquid; Chromatography; x1 = 0
Assay endpoint: activity coefficient
// keep it numeric: no unit symbol after the value

Look at this compound and give its reported activity coefficient. C1CCOC1 [tetrahydrofuran] + CCCC[N+]1(C)CCCC1.N#CN=C=[N-]
1.49

Look at this compound and give its reported activity coefficient. ClC(Cl)Cl [trichloromethane] + CCCC[N+]1(C)CCCC1.N#CN=C=[N-]
0.54

Look at this compound and give its reported activity coefficient. COC(C)=O [methyl ethanoate] + CCCC[N+]1(C)CCCC1.N#CN=C=[N-]
1.63

Look at this compound and give its reported activity coefficient. ClC(Cl)(Cl)Cl [tetrachloromethane] + CCCC[N+]1(C)CCCC1.N#CN=C=[N-]
2.5

Look at this compound and give its reported activity coefficient. COC(C)(C)C [2-methoxy-2-methylpropane] + CCCC[N+]1(C)CCCC1.N#CN=C=[N-]
6.53

###

test: activity coefficient (dimensionless); of the first substance listed, at infinite dilution; xn = mol fraction of the nth substance listed; settings: 343.15 K; 101 kPa; Liquid; Chromatography; x1 = 0
Decide using activity coefficient alone. Strictly below 2: Criterion met. Equal to or above 2: Criterion not met.

Does the reported activity coefficient of ClC(Cl)(Cl)Cl [tetrachloromethane] + CCCC[N+]1(C)CCCC1.N#CN=C=[N-] stay below 2?
Criterion not met

Does the reported activity coefficient of CCC1CCCCC1 [ethylcyclohexane] + CCCC[N+]1(C)CCCC1.N#CN=C=[N-] stay below 2?
Criterion not met

Does the reported activity coefficient of COC(C)(C)C [2-methoxy-2-methylpropane] + CCCC[N+]1(C)CCCC1.N#CN=C=[N-] stay below 2?
Criterion not met

Does the reported activity coefficient of Cc1cccc(C)c1 [1,3-dimethylbenzene] + CCCC[N+]1(C)CCCC1.N#CN=C=[N-] stay below 2?
Criterion not met

Does the reported activity coefficient of c1ccsc1 [thiophene] + CCCC[N+]1(C)CCCC1.N#CN=C=[N-] stay below 2?
Criterion met

Does the reported activity coefficient of CC(C)O [propan-2-ol] + CCCC[N+]1(C)CCCC1.N#CN=C=[N-] stay below 2?
Criterion met

Does the reported activity coefficient of COC(C)=O [methyl ethanoate] + CCCC[N+]1(C)CCCC1.N#CN=C=[N-] stay below 2?
Criterion met

Does the reported activity coefficient of COC(=O)OC [dimethyl carbonate] + CCCC[N+]1(C)CCCC1.N#CN=C=[N-] stay below 2?
Criterion met

Does the reported activity coefficient of CC(C)OC(C)C [diisopropyl ether] + CCCC[N+]1(C)CCCC1.N#CN=C=[N-] stay below 2?
Criterion not met

Does the reported activity coefficient of FC(F)(F)C(Cl)Br (stereo unspecified) [1-bromo-1-chloro-2,2,2-trifluoroethane] + CCCC[N+]1(C)CCCC1.N#CN=C=[N-] stay below 2?
Criterion met

Does the reported activity coefficient of COCCOC [1,2-dimethoxyethane] + CCCC[N+]1(C)CCCC1.N#CN=C=[N-] stay below 2?
Criterion met

###

experiment: activity coefficient (dimensionless); of the first substance listed, at infinite dilution; xn = mol fraction of the nth substance listed; settings: 318.15 K; 101 kPa; Liquid; Chromatography; x1 = 0
Would you kindly list activity coefficient for each of these molecules?

Look at this molecule and give its reported activity coefficient. CCC(C)=O [butanone] + CCCC[N+]1(C)CCCC1.N#CN=C=[N-]
1.26

Look at this molecule and give its reported activity coefficient. CC(C)OC(C)C [diisopropyl ether] + CCCC[N+]1(C)CCCC1.N#CN=C=[N-]
17.9

Look at this molecule and give its reported activity coefficient. CCO [ethanol] + CCCC[N+]1(C)CCCC1.N#CN=C=[N-]
0.55

Look at this molecule and give its reported activity coefficient. ClC(Cl)(Cl)Cl [tetrachloromethane] + CCCC[N+]1(C)CCCC1.N#CN=C=[N-]
2.04

Look at this molecule and give its reported activity coefficient. C[N+](=O)[O-] [nitromethane] + CCCC[N+]1(C)CCCC1.N#CN=C=[N-]
0.592

Look at this molecule and give its reported activity coefficient. Cc1ccccc1 [toluene] + CCCC[N+]1(C)CCCC1.N#CN=C=[N-]
2.17

Look at this molecule and give its reported activity coefficient. FC(F)(F)C(Cl)Br (stereo unspecified) [1-bromo-1-chloro-2,2,2-trifluoroethane] + CCCC[N+]1(C)CCCC1.N#CN=C=[N-]
0.568

Look at this molecule and give its reported activity coefficient. CO [methanol] + CCCC[N+]1(C)CCCC1.N#CN=C=[N-]
0.344

Look at this molecule and give its reported activity coefficient. C1CCCCC1 [cyclohexane] + CCCC[N+]1(C)CCCC1.N#CN=C=[N-]
21.1

Look at this molecule and give its reported activity coefficient. COC(=O)OC [dimethyl carbonate] + CCCC[N+]1(C)CCCC1.N#CN=C=[N-]
1.26

Look at this molecule and give its reported activity coefficient. Cc1cccc(C)c1 [1,3-dimethylbenzene] + CCCC[N+]1(C)CCCC1.N#CN=C=[N-]
3.46

###

test: activity coefficient (dimensionless); of the first substance listed, at infinite dilution; xn = mol fraction of the nth substance listed; conditions: 333.15 K; 101 kPa; Liquid; Chromatography; x1 = 0
activity coefficient of 1 or higher: 1. Under 1: -1.

Quick check: does C1CCCCC1 [cyclohexane] + CCCC[N+]1(C)CCCC1.N#CN=C=[N-] have activity coefficient greater than or equal to 1?
1

Quick check: does ClC(Cl)(Cl)Cl [tetrachloromethane] + CCCC[N+]1(C)CCCC1.N#CN=C=[N-] have activity coefficient greater than or equal to 1?
1

Quick check: does CC1CCCCC1 [methylcyclohexane] + CCCC[N+]1(C)CCCC1.N#CN=C=[N-] have activity coefficient greater than or equal to 1?
1

Quick check: does CCCCCCCC [octane] + CCCC[N+]1(C)CCCC1.N#CN=C=[N-] have activity coefficient greater than or equal to 1?
1

Quick check: does COCCOC [1,2-dimethoxyethane] + CCCC[N+]1(C)CCCC1.N#CN=C=[N-] have activity coefficient greater than or equal to 1?
1

Quick check: does CCC1CCCCC1 [ethylcyclohexane] + CCCC[N+]1(C)CCCC1.N#CN=C=[N-] have activity coefficient greater than or equal to 1?
1

Quick check: does CCc1ccccc1 [ethylbenzene] + CCCC[N+]1(C)CCCC1.N#CN=C=[N-] have activity coefficient greater than or equal to 1?
1

Quick check: does CC(C)O [propan-2-ol] + CCCC[N+]1(C)CCCC1.N#CN=C=[N-] have activity coefficient greater than or equal to 1?
-1

Quick check: does C1CCOC1 [tetrahydrofuran] + CCCC[N+]1(C)CCCC1.N#CN=C=[N-] have activity coefficient greater than or equal to 1?
1

Quick check: does COC(C)(C)C [2-methoxy-2-methylpropane] + CCCC[N+]1(C)CCCC1.N#CN=C=[N-] have activity coefficient greater than or equal to 1?
1

Quick check: does c1ccsc1 [thiophene] + CCCC[N+]1(C)CCCC1.N#CN=C=[N-] have activity coefficient greater than or equal to 1?
-1

###

assay: activity coefficient (dimensionless); of the first substance listed, at infinite dilution; xn = mol fraction of the nth substance listed; conditions: 343.15 K; 101 kPa; Liquid; Chromatography; x1 = 0
Assay endpoint: activity coefficient

Look at this compound and give its reported activity coefficient. C1CCOC1 [tetrahydrofuran] + CCCC[N+]1(C)CCCC1.N#CN=C=[N-]
1.46

Look at this compound and give its reported activity coefficient. CCOC(C)=O [ethyl acetate] + CCCC[N+]1(C)CCCC1.N#CN=C=[N-]
2.43

Look at this compound and give its reported activity coefficient. ClC(Cl)Cl [trichloromethane] + CCCC[N+]1(C)CCCC1.N#CN=C=[N-]
0.496

Look at this compound and give its reported activity coefficient. CCCCCCCC [octane] + CCCC[N+]1(C)CCCC1.N#CN=C=[N-]
95.2

Look at this compound and give its reported activity coefficient. ClCCl [dichloromethane] + CCCC[N+]1(C)CCCC1.N#CN=C=[N-]
0.623

Look at this compound and give its reported activity coefficient. C[N+](=O)[O-] [nitromethane] + CCCC[N+]1(C)CCCC1.N#CN=C=[N-]
0.609

Look at this compound and give its reported activity coefficient. C=CCCCCCC [oct-1-ene] + CCCC[N+]1(C)CCCC1.N#CN=C=[N-]
42.4

Look at this compound and give its reported activity coefficient. CCCCCCC [heptane] + CCCC[N+]1(C)CCCC1.N#CN=C=[N-]
64.7

Look at this compound and give its reported activity coefficient. CCc1ccccc1 [ethylbenzene] + CCCC[N+]1(C)CCCC1.N#CN=C=[N-]
3.65
